Hey, just so you know, these numbers are from PubChem BioAssay AID1845194.

# Tested on: 287954-098-R-J1 tumor spheroid viability;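 further: luminescent signal taken as surrogate of viable cell content; spheroids exposed to compound for 7 days before viability readout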
# assay-text: Anticancer human tumor 287954-098-R-J1 patient-derived Ewing sarcoma cell line growth inhibition; active means viability on the fitted dose curve at most 10% of control; inactive means the rest
# condition-notes: second compound 10 µM; first compound 0.949 µM; spheroids with HUVEC and MSC
Outcome (select one): y = active, n = inactive

Query string: Query: recorded result category for Cc1sc2c(c1C)C(c1ccc(Cl)cc1)=NC(CC(=O)Nc1ccc(O)cc1)c1nnc(C)n1-2 (centres undefined) + Cn1nnc2c(C(N)=O)ncn2c1=O in this test
Result string: n

Query string: Query: recorded result category for Cn1ncnc1[C@H]1c2n[nH]c(=O)c3cc(F)cc(c23)N[C@@H]1c1ccc(F)cc1 + Cn1nnc2c(C(N)=O)ncn2c1=O in this test
Result string: y

Query string: Query: recorded result category for O=C(c1cc(Cc2n[nH]c(=O)c3ccccc23)ccc1F)N1CCN(C(=O)C2CC2)CC1 + Cn1nnc2c(C(N)=O)ncn2c1=O in this test
Result string: n

Query string: Query: recorded result category for CNCc1ccc(-c2cc(-c3nc(-c4ccc(S(=O)(=O)C(C)C)cc4)cnc3N)on2)cc1 + Cn1nnc2c(C(N)=O)ncn2c1=O in this test
Result string: y
